Target: PTPN3, P26045
Sequence (P26045 505-587): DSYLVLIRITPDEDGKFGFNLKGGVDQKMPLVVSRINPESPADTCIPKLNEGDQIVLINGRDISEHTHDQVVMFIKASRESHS
Test: holdup assay
Design: key: below the threshold = too weak to quantify, mostly under pKd 3.1 to 4
Conditions: plain residues with an end cap or a label only (N-terminal biotin on a linker: ado-ado)
Each record here notes measured pKd.
EXPERIMENTAL_ENDPOINT: pKd

- BINDER: "QRPYRRGSEI [KCNJ18, B7U540]"
  EXPERIMENTAL_ENDPOINT: "pKd"
  REPORTED_MEASUREMENT: 4.02
- BINDER: "AQRARSPSDV [GPR12, P47775]"
  EXPERIMENTAL_ENDPOINT: "pKd"
  REPORTED_MEASUREMENT: 3.98
- BINDER: "IDESKKEWLI [CNTNAP2, Q9UHC6]"
  EXPERIMENTAL_ENDPOINT: "pKd"
  REPORTED_MEASUREMENT: 4.07
- BINDER: "EKCGKEFSEF [PRKACA, P17612]"
  EXPERIMENTAL_ENDPOINT: "pKd"
  REPORTED_MEASUREMENT: 3.98
- BINDER: "TISFTQTSQF [SLC1A1, P43005]"
  EXPERIMENTAL_ENDPOINT: "pKd"
  REPORTED_MEASUREMENT: 4.09
- BINDER: "PYPTADHMLA [JUP, P14923]"
  EXPERIMENTAL_ENDPOINT: "pKd"
  REPORTED_MEASUREMENT: 3.97
- BINDER: "SFISKKEWYV [NECTIN1, Q15223]"
  EXPERIMENTAL_ENDPOINT: "pKd"
  REPORTED_MEASUREMENT: 3.96
- BINDER: "SRSVVESDEL [MYPN, Q86TC9]"
  EXPERIMENTAL_ENDPOINT: "pKd"
  REPORTED_MEASUREMENT: 3.99

This collection of values is drawn from paper PMC9482650.
